- System: HeLa human cervical carcinoma cell line
- method description: MTT in vitro antitumor (antiproliferative) assay, HeLa
- Format: cell-based
- measurement conditions: 72 h, read-out: IC50 against HeLa cells
pIC50: −log10 of the molar value.
assay readout: pIC50

[[record]]
molecule = "CCc1c2c(nc3ccc(OC(=O)NC(C)C(=O)NC(CCC(=O)O)C(=O)O)cc13)-c1cc3c(c(=O)n1C2)COC(=O)[C@]3(O)CC (stereo partly shown)"
assay_readout = "pIC50"
endpoint_value = "> 8.49"


====

- method description: Chemical stability of the prodrugs in PBS (HPLC)
- Type: physicochemical
- measurement conditions: PBS pH 7.4, 37 °C, 1 h
Threshold check on Remaining Prodrugs 1 h pH 7.4: at or above 30% gives MET, strictly below gives NOT MET.

[[record]]
molecule = "CCc1c2c(nc3ccc(OC(=O)NC(C)C(=O)N[C@@H](CC(=O)O)C(=O)O)cc13)-c1cc3c(c(=O)n1C2)COC(=O)[C@]3(O)CC (stereo partly drawn) [Compound 7e, 10-OCO-(L-Asp-Ala-OH)-SN-38]"
category_label = "NOT MET"

[[record]]
molecule = "CCc1c2c(nc3ccc(OC(=O)NC(C)C(=O)NC(CCC(=O)O)C(=O)O)cc13)-c1cc3c(c(=O)n1C2)COC(=O)[C@]3(O)CC (stereo partly drawn) [Compound 7f, 10-OCO-(Glu-Ala-OH)-SN-38]"
category_label = "NOT MET"

[[record]]
molecule = "CCc1c2c(nc3ccc(OC(=O)NCC(=O)N[C@@H](CC(=O)O)C(=O)O)cc13)-c1cc3c(c(=O)n1C2)COC(=O)[C@]3(O)CC [Compound 7b, 10-OCO-(L-Asp-Gly-OH)-SN-38]"
category_label = "NOT MET"

[[record]]
molecule = "CCc1c2c(nc3ccc(OC(=O)N[C@H](CC(=O)O)C(=O)O)cc13)-c1cc3c(c(=O)n1C2)COC(=O)[C@]3(O)CC [Compound 5g, 10-OCO-(L-Asp-OH)-SN-38]"
category_label = "MET"

[[record]]
molecule = "CCc1c2c(nc3ccc(OC(=O)NC(CCC(=O)O)C(=O)O)cc13)-c1cc3c(c(=O)n1C2)COC(=O)[C@]3(O)CC (stereo partly shown) [Compound 5d, 10-OCO-(Glu-OH)-SN-38]"
category_label = "MET"

[[record]]
molecule = "CCc1c2c(nc3ccc(OC(=O)NC(C)C(=O)N[C@H](CC(=O)O)C(=O)O)cc13)-c1cc3c(c(=O)n1C2)COC(=O)[C@]3(O)CC (stereo partly drawn) [Compound 7d, 10-OCO-(D-Asp-Ala-OH)-SN-38]"
category_label = "NOT MET"

[[record]]
molecule = "CCc1c2c(nc3ccc(OC(=O)NCC(=O)O)cc13)-c1cc3c(c(=O)n1C2)COC(=O)[C@]3(O)CC [Compound 5a, 10-OCO-(Gly-OH)-SN-38]"
category_label = "MET"

[[record]]
molecule = "CCc1c2c(nc3ccc(OC(=O)NCC(=O)N[C@H](CC(=O)O)C(=O)O)cc13)-c1cc3c(c(=O)n1C2)COC(=O)[C@]3(O)CC [Compound 7a, 10-OCO-(D-Asp-Gly-OH)-SN-38]"
category_label = "NOT MET"

[[record]]
molecule = "CCc1c2c(nc3ccc(OC(=O)N[C@@H](CC(=O)O)C(=O)O)cc13)-c1cc3c(c(=O)n1C2)COC(=O)[C@]3(O)CC [Compound 5h, 10-OCO-(D-Asp-OH)-SN-38]"
category_label = "MET"

